Where do the numbers come from? From patent US20250250357A1.

# tested-system: T1, human MSLN-R1-his protein (human, UniProt Q13421 296-390)
# T1 construct: Self-made in HEK293E cells; also called human MSLN-R1 protein; hMSLN-R1-his; not shown: His tag
# T1 chain: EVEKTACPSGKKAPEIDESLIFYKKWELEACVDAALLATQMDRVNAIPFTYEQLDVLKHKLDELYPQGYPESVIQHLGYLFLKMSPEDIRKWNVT
# test-protocol: ELISA on coated antigen, antibody 0.01 nM
measured-metric: OD450 (OD450)
Give bare numbers, in OD450.

- binder: "S009-F3.38.10 (antibody, human IgG1, kappa, V domains shown, Human-murine chimeric antibody: murine VH/VL on human IgG1 heavy and kappa light constant regions) VH: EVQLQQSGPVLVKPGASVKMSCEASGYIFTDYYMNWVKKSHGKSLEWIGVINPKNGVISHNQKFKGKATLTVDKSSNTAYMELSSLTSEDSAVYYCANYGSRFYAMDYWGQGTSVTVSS VL: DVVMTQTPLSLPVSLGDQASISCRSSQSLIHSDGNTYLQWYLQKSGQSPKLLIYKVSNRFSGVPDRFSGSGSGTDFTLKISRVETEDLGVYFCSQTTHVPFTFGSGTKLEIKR"
  OD450 / OD450: 0.06
- binder: "S009-F3.7.3 (antibody, human IgG1, kappa, V domains shown, Human-murine chimeric antibody: murine VH/VL on human IgG1 heavy and kappa light constant regions) VH: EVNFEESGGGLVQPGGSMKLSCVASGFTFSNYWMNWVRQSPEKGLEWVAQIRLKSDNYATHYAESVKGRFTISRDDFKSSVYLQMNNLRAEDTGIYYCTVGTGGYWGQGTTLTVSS VL: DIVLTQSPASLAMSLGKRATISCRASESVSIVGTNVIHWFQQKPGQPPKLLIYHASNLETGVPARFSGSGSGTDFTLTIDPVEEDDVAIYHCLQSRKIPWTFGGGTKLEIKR"
  OD450 / OD450: 0.06

// OD450 lookup, binder = S009-F3.16.1 (antibody, human IgG1, kappa, V domains shown, Human-murine chimeric antibody: murine VH/VL on human IgG1 heavy and kappa light constant regions) VH: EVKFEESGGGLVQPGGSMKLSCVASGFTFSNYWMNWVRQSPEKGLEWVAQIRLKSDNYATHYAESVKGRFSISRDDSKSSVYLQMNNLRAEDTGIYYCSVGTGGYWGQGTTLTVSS VL: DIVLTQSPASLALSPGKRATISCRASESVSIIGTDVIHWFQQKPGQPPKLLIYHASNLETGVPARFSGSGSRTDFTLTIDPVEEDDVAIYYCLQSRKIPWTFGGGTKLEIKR , result: 0.06
